# credit: the supplement of paper PMC12636033

Entries annotated with measured PBM 8-mer E-score
Tested on: 2Sp-muMax20 (muMax20 with two 2,6-bis(methyl)pyridine Cys staples)
PROTOCOL DESCRIPTION: PBM 8-mer E-score (E-score (rank enrichment, -0.5 to 0.5)); higher = stronger preferential binding
Over roughly 33,000 sequences, “E-score (rank enrichment, -0.5 to 0.5)” has its median near -0.0043; the highest 2% begin near 0.24. The list comes from a sample in which the highest values are over-represented; it also holds close analogues and randomly drawn sequences.
Write no unit; give the number alone.

RECORD SEQUENCE: AGCAAGAT
DATA VALUE: -0.0742
--
RECORD SEQUENCE: CGAGGTTC
DATA VALUE: -0.105
--
RECORD SEQUENCE: AGTCCTTC
DATA VALUE: -0.195

INPUT: Tell us which PBM 8-mer E-score value is on record for ATTACATC
OUTPUT: 0.126

INPUT: Tell us which PBM 8-mer E-score value is on record for GACACCGA
OUTPUT: -0.215

INPUT: Tell us which PBM 8-mer E-score value is on record for CACGCGCG
OUTPUT: 0.261

INPUT: Tell us which PBM 8-mer E-score value is on record for AACGCGCC
OUTPUT: -0.0607

INPUT: Tell us which PBM 8-mer E-score value is on record for CCGAGCCG
OUTPUT: -0.298

INPUT: Tell us which PBM 8-mer E-score value is on record for CAGCGTGG
OUTPUT: 0.039

INPUT: Tell us which PBM 8-mer E-score value is on record for ATTACAGG
OUTPUT: 0.312

INPUT: Tell us which PBM 8-mer E-score value is on record for ATGCGATC
OUTPUT: 0.00891

====

Entries annotated with measured PBM 8-mer E-score
Tested on: 2Sp-muMax20 (muMax20 with two 2,6-bis(methyl)pyridine Cys staples)
PROTOCOL DESCRIPTION: PBM 8-mer E-score (E-score (rank enrichment, -0.5 to 0.5)); higher = stronger preferential binding
Over roughly 33,000 sequences, “E-score (rank enrichment, -0.5 to 0.5)” has its median near -0.0043; the highest 2% begin near 0.24. What follows is part of a selection rich in the highest values, with near analogues and random picks from the rest.

The cases that follow already have their PBM 8-mer E-score on record.
RECORD SEQUENCE: GCATGTGA
PBM 8-mer E-score: 0.183
--
RECORD SEQUENCE: ATACACCC
PBM 8-mer E-score: -0.00554

INPUT: Tell us which PBM 8-mer E-score value is on record for CAATGTGA
OUTPUT: 0.146

INPUT: Tell us which PBM 8-mer E-score value is on record for GAATGTGA
OUTPUT: 0.00134

INPUT: Tell us which PBM 8-mer E-score value is on record for CTGATCAA
OUTPUT: -0.0225

INPUT: Tell us which PBM 8-mer E-score value is on record for AATGATAA
OUTPUT: 0.0232

INPUT: Tell us which PBM 8-mer E-score value is on record for CCATGTGA
OUTPUT: 0.268

INPUT: Tell us which PBM 8-mer E-score value is on record for CTTCCGAA
OUTPUT: -0.23

INPUT: Tell us which PBM 8-mer E-score value is on record for TATGATAA
OUTPUT: 0.0434
